The measurements presented in this section are drawn from ChEMBL document CHEMBL3885881.

Entries and their measured MEAN CORPUSCULAR HEMOGLOBIN follow.
Organism: Rattus norvegicus
Test: DrugMatrix - Regimen: Daily Repeat
Type: toxicity, organism-based, Sprague-Dawley
Parameters: regimen Daily Repeat, gender Male, age 6-8 weeks
Details: in vivo, po, 1500 mg/kg, 120 h, tissue Blood, route oral GAVAGE, dose level High, time 5 day, vehicle .5 % CMC
Provide the reading as a plain figure in pg.

The examples below pair each entry with its known result.
• NS(=O)(=O)c1cc2c(cc1Cl)NCNS2(=O)=O [HYDROCHLOROTHIAZIDE] = 24.4
• CCOC(=O)[C@H](CCc1ccccc1)N[C@@H](C)C(=O)N1[C@H](C(=O)O)C[C@@H]2CCC[C@@H]21 = 24.3
• O=C1CCc2cc(OCCCCc3nnnn3C3CCCCC3)ccc2N1 [CILOSTAZOL] = 19.8

Consider the record given below.
Fill in: MEAN CORPUSCULAR HEMOGLOBIN of COC(=O)c1ccc(O)cc1 [METHYLPARABEN] is ___
25.3

###

Species: Rattus norvegicus
Assay: DrugMatrix - Regimen: Daily Repeat
Type: toxicity, organism-based, Sprague-Dawley
Parameters: regimen Daily Repeat, gender Male, age 6-8 weeks
Conditions: in vivo, ip, 160 mg/kg, 120 h, tissue Blood, route intraperitoneal, dose level High, time 5 day, vehicle 100 % SALINE
Readout label: ABSOLUTE SEGMENTED NEUTROPHIL (cells/µL)
Write the answer as a number in cells/µL, unit excluded.

# lookup: ABSOLUTE SEGMENTED NEUTROPHIL of NCC[C@H](O)C(=O)N[C@@H]1C[C@H](N)[C@@H](O[C@H]2O[C@H](CN)[C@@H](O)[C@H](O)[C@H]2O)[C@H](O)[C@H]1O[C@H]1O[C@H](CO)[C@@H](O)[C@H](N)[C@H]1O
830

###

Species: Rattus norvegicus
Test: DrugMatrix - Regimen: Daily Repeat
Assay type: toxicity, organism-based, Sprague-Dawley
Parameters: regimen Daily Repeat, gender Male, age 6-8 weeks
Conditions: in vivo, po, 10 mg/kg, 72 h, tissue Blood, route oral GAVAGE, dose level Low, time 3 day, vehicle .5 % CMC
Readout label: ABSOLUTE LYMPHOCYTE
Answer as a quantity: numeral, then unit.

• NS(=O)(=O)c1cc2c(cc1Cl)NCNS2(=O)=O [HYDROCHLOROTHIAZIDE] = 10610.67 CELLS/uL
• CC(=O)O[C@]1(C(C)=O)CC[C@H]2[C@@H]3C=C(Cl)C4=CC(=O)CC[C@]4(C)[C@H]3CC[C@@]21C [CHLORMADINONE ACETATE] = 11175 CELLS/uL
• COc1c(C)c2c(c(O)c1C/C=C(\C)CCC(=O)OCCN1CCOCC1)C(=O)OC2 [MYCOPHENOLATE MOFETIL] = 12148 CELLS/uL

Can you share its ABSOLUTE LYMPHOCYTE? I mean this compound: O=C1CN=C(c2ccccc2)c2cc([N+](=O)[O-])ccc2N1
6878.67 CELLS/uL

###

Species: Rattus norvegicus
Assay: DrugMatrix - Regimen: Daily Repeat
Type: toxicity, organism-based, Sprague-Dawley
Set-up: regimen Daily Repeat, gender Male, age 6-8 weeks
Details: in vivo, po, 0 mg/kg, 120 h, tissue Plasma, route oral GAVAGE, dose level Control, time 5 day, vehicle .5 % CMC
Readout label: URIC ACID (mg/dL)
Supply the numeric figure in mg/dL, leaving out any unit text.

Reference set, count: 6
- CCC[C@@H]1C[C@@H](C(=O)N[C@@H]([C@H]2O[C@H](SC)[C@H](O)[C@@H](O)[C@H]2O)[C@@H](C)O)N(C)C1: 1.67
- CN1CCC[C@@H]1CCO[C@](C)(c1ccccc1)c1ccc(Cl)cc1: 1.5
- Brc1ccccc1: 2.13
- CC(/C=C1\SC(=S)N(CC(=O)O)C1=O)=C\c1ccccc1: 1.5
- CC(C)[C@H](N)C(=O)OCCOCn1cnc2c(=O)[nH]c(N)nc21: 1.45
- O=c1[nH]cc(F)c(=O)[nH]1: 1.27

# lookup: URIC ACID of CCOC(=O)OC(C)OC1=C(C(=O)Nc2ccccn2)N(C)S(=O)(=O)c2ccccc21 (stereo not drawn)
2.13

Given COC(=O)c1ccc(O)cc1 , state its recorded URIC ACID.
1.98

What value of URIC ACID has been reported for the following molecule? COc1c(C)c2c(c(O)c1C/C=C(\C)CCC(=O)OCCN1CCOCC1)C(=O)OC2 [MYCOPHENOLATE MOFETIL]
1.5

# lookup: URIC ACID of O=c1cc(-c2ccccc2)oc2c1ccc1ccccc12
1.04

State the recorded URIC ACID for this entry: Cc1c(-c2ccccc2)oc2c(C(=O)OCCN3CCCCC3)cccc2c1=O [FLAVOXATE]
1.63

Please look up its URIC ACID: CCc1ccc(C(=O)C(C)CN2CCCCC2)cc1 (stereo not drawn)
1.73

Which URIC ACID value belongs to CC1(C)[C@H]2CC[C@]1(C)C(=O)C2 [(-)-CAMPHOR] ?
1.83
